# Protocol Description: chemical genetic growth profiling, strain panel (AID 1159580);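 note: tested at 20 µM; growth read once vehicle control cultures reached saturation at 30 °C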
# Particulars: S. cerevisiae deletion strains, growth OD, locus YDL074C, strain BRE1, stronger effect = lower value
Among all 5,500 compounds or so, about 2,000 (36%) were called active. Another 18% or so got no clear call; they are omitted. The list shows a part of the results.
Please respond with condition met when measured normalized growth is strictly beneath 1, and with condition not met in all other cases.

Q: Consider the compound CN[C@H](CC(=O)O)C(=O)O . Is its normalized growth strictly less than 1?
Ans: condition not met

Q: Consider the compound CC(=O)Oc1ccc(Cl)c2cccnc12 . Is its normalized growth strictly less than 1?
Ans: condition met

Q: Consider the compound Cc1ccc2cc3c(ccc4ccccc43)c3c2c1CC3 . Is its normalized growth strictly less than 1?
Ans: condition met

Q: Consider the compound CC1(C)CC2C1(O)CCC1(C)C=CC(O)C21CO (stereo not drawn) . Is its normalized growth strictly less than 1?
Ans: condition not met

Q: Consider the compound Oc1c(I)cc(I)c2cccnc12 . Is its normalized growth strictly less than 1?
Ans: condition met

Attribution: PubChem BioAssay AID1159580
